- System: SW-620 colon
- measurement_description: NCI-60 one-dose screen, 48 h (100 = growth as untreated, 0 = no growth, -100 = all killed)
- settings: 10 µM unless noted
The panel holds about 83,000 compounds, 20% with a hit somewhere; the sample as a whole holds those more often.
growth vs 20%: at or above is YES, below is NO.

compound | assigned_label
CCn1cc(C(=O)O)c(=O)c2cc(F)c(N3CCN(S(=O)(=O)c4ccc(OC)c(OC)c4)CC3)cc21 | YES
CCNC(=O)CCCCC(=O)c1c(C)[nH]c(/C=C2\N=C(c3ccc[nH]3)C=C2OC)c1C | NO
C=C1C(=O)O[C@H]2[C@H]1CC/C(COC(=O)NCc1cc(OC)c(OC)c(OC)c1)=C\CC[C@@]1(C)O[C@@H]21 | NO
O=C(Nc1ccc(OCc2nnc(-c3ccc(Cl)cc3)o2)c(F)c1)Nc1ccc(Cl)c(Cl)c1 | YES
Clc1nc(Cl)c2ncn(C/C=C/Cn3cnc4c(Cl)nc(Cl)nc43)c2n1 | YES
CN1CCN(CCCOc2ccc3nc(Nc4ccc(C(F)(F)F)c(Cl)c4)ccc3c2)CC1 | NO
C=C1C(=O)O[C@H]2[C@H]1CC/C(COC(=O)NCc1cc(OC)cc(OC)c1)=C\CC[C@@]1(C)O[C@@H]21 | NO
CC(=O)Nc1ccc2c(c1)/C(=C\C=C/c1ccc([N+](C)(C)C)cc1)c1ccccc1-2 | YES
CCN1C(=O)/C(=c2\sc3n(c2=O)C2C(NN=3)N(CC)C(=S)N2CC)c2ccccc21 (centres undefined) | YES
COc1ccc2c(c1)NC(=O)CN2c1nc(NC2CC2)nc2ccccc12 | YES
NC(=O)c1c(NC(=O)c2ccc(OCC3CCCO3)cc2)sc2c1CCCC2 (centres undefined) | YES
CNC(=O)Cc1nc(-c2cccc(NS(=O)(=O)c3c(F)cccc3F)c2F)c(-c2ccnc(Nc3ccccc3)n2)s1 | YES
C/C(=C\c1csc(C)n1)[C@@H]1C[C@@H]2O[C@]2(C)CCC[C@H](C)[C@H](O)[C@@H](C)C(=O)C(C)(C)[C@@H](O)CC(=O)N1 | NO
CCN(CC)S(=O)(=O)c1ccc2[nH]c(=O)cc(C(=O)Nc3ccc(OC)cc3OC)c2c1 | YES
CN(C)CCCNC(=O)C(c1ccccc1)c1ccccc1 | YES
CCSc1nnc(Nc2ccc(C(C)C)cc2)s1 | YES
COc1ccc(/C=C/C(=O)c2cccc(B(O)O)c2)cc1O | NO
COc1cccc(C2CC(=O)Nc3c2c(C)nn3-c2nc3ccccc3[nH]2)c1OC (centres undefined) | YES
O=Nc1c(-c2c(O)[nH]c3ccc([N+](=O)[O-])cc23)[nH]c2ccc(O)cc12 | NO

###

- System: MCF7 breast
- measurement_description: NCI-60 one-dose screen, 48 h (100 = growth as untreated, 0 = no growth, -100 = all killed)
- settings: 10 µM unless noted
- Protocol: Growth inhibition of the MCF7 human tumor cell line is measured as a screen for anti-cancer activity. Cells are grown in 96 well plates and exposed to the test compound for 48 hours. Compounds are tested at a single concentration, which is 10^-5 M for most compounds. The reported endpoint is percent growth (GI% or GIPRCNT), where numbers from 0 - 100% represent growth inhibition, and numbers from -100% - 0 represent cell death. For example, a value of 40 represents 60% growth inhibition. […]
Compounds without any hit were thinned out: in the full panel of roughly 83,000, 20% have a hit.
Listed next: entries and their corresponding growth.
endpoint_name: growth (%)

compound | reading
O=C(Nc1ccc(F)cc1)c1cc([N+](=O)[O-])ccc1O | 61.5
N#Cc1ccc(NC(=O)c2ccc3cccnc3c2O)cc1 | 15.8
Nc1ccccc1C#C/C=C\C#Cc1cccc(O)c1 | 35.9
COc1ccc(NC(=S)/N=c2\oc3c(OC)cccc3cc2-c2cc3ccccc3[nH]2)cc1 | 81
CS(=O)(=O)N(c1cc(-c2ccc3ncnc(Nc4cccc(Cl)c4)c3c2)cnc1Cl)S(C)(=O)=O | 4.87
COc1cc(NCCN=C(N)NC(N)=NC(C)C)c2ncccc2c1 | -55.7
O=S(=O)(NCCCNc1cc(-c2cn(-c3ccccc3)nc2-c2cccc(O)c2)ccn1)c1cccc(F)c1 | 31.2
COc1ccc(/C=C/C(=O)OCC(=O)NNC(=O)c2ccccc2)cc1OC | 85.6
COc1cc(C(=O)CCCl)ccc1O | 80.2
O=C(CN1CCN(c2cc3c(cc2F)c(=O)c(C(=O)O)cn3C2CC2)CC1)Nc1ccc(C(=O)/C=C/c2ccc(Cl)cc2)cc1 | 91.7
COc1ccc(NC(=O)/N=c2\oc3c(OC)cccc3cc2-c2cc3ccccc3[nH]2)cc1 | 70.1
CC(=O)Nc1ccc(S(=O)(=O)N2C(=O)CCC2C(=O)Nc2ccc(Br)cc2)cc1 (stereo unspecified) | 9.58
CN(C)C/C=C/C(=O)Nc1cc2c(Nc3cccc(Cl)c3F)ncnc2cc1OCCOC(F)F | 35.1
CCOc1ccc(/C=C/C=N/NC(N)=S)cc1 | 43.5
COc1ccc(/C=C/C(=O)c2ccc(NC(=O)CN3CCN(c4cc5c(cc4F)c(=O)c(C(=O)O)cn5C4CC4)CC3)cc2)cc1 | 91.9
CCN1C(=O)N(CC)C2Nn3c(s/c(=C4\C(=O)N(C5CCCC5)c5ccccc54)c3=O)=NC21 (stereo unspecified) | 45.7
CC/C=C\C[C@H]1C/C=C2/C(=O)C(Cl)=C[C@@H]2C/C=C\CCCC(=O)O1 | -40.4
CCC#CC[C@H]1C/C=C2/C(=O)C=C[C@@H]2C/C=C\CCCC(=O)O1 | 18.3
COc1ccc(S(=O)(=O)N2CCN(c3cc4c(cc3F)c(=O)c(C(=O)O)cn4C3CC3)CC2)c(OC)c1 | 98.4
COc1ccc(N=C2NN=C(c3ccc(F)cc3)CS2)cc1OC | 104
CCC(c1cccc(Br)c1)C(C(=O)O)c1ccc(OC)cc1 (stereo unspecified) | 93
COc1ccc(NC(=O)c2cc3ccccc3nc2Nc2cc(OC)c(OC)c(OC)c2)cc1 | 39.4
Nc1c(C(=O)Nc2cccc(C(F)(F)F)c2)sc2nc3c(cc12)CCCCC3 | 29.5
O=C(CC(O)c1ccncc1)c1ccccc1 (stereo unspecified) | -24.2
CCCCCCC[C@@H](O)CC(=O)N[C@H](CCCCN)C(=O)N[C@H](Cc1c[nH]c2ccccc12)C(=O)NC(CCCCN)C(=O)N[C@H](CC(C)C)C(=O)N[C@H](Cc1ccccc1)C(=O)N[C@H](CCCCN)C(=O)N[C@H](CCCCN)C(=O)N[C@H](CC(C)C)C(=O)N1CCCC1C(=O)N[C@H](CCCCN)C(=O)N[C@H](Cc1ccccc1)C(=O)N[C@H](CC(C)C)C(=O)N[C@H](Cc1c[nH]cn1)C(=O)N[C@H](CC(C)C)C(=O)N[C@H](C)C(=O)N[C@H](CCCCN)C(=O)N[C@H](CCCCN)C(=O)N[C@H](Cc1ccccc1)C(=O)O (stereo partly specified) | -23.8
Cn1c(-c2nonc2NC(=O)c2ccc(F)cc2)nc2ccccc21 | 89.1
COc1cc(C2C3=C(COC3=O)Nc3c2ccc2c3CCCC2)cc2c1OCO2 (stereo unspecified) | 16.3
COc1cc(/C=C2\CCCC3=C2N=C2SC(C)=NN2C3c2cc(OC)c(OC)c(OC)c2)cc(OC)c1OC (stereo unspecified) | 12.5
COc1cc(-n2nc(C(=O)Nc3ccc(C(=O)O)cc3)nc2-c2ccccc2)cc(OC)c1OC | 93.5
CN(C)c1ccc(-c2ccc(-c3ccc(C(=N)N)cn3)o2)cc1 | -38.1
COc1ccc(/C=c2\sc3n(c2=O)C2C(NN=3)N(C)C(=O)N2C)cc1 (stereo unspecified) | 22.7
CC(=O)Nc1ccc(S(=O)(=O)N2C(=O)CCC2C(=O)Nc2ccccc2)cc1 (stereo unspecified) | 19.2
COc1ccc(/C=C/C(=O)/C=C/c2cc3ccc(Cl)cc3[nH]c2=O)cc1 | 25.2
COc1cc(NCCCN=C(N)NC(N)=NC(C)C)c2ncccc2c1 | -52.9
COc1cc(C2CC(c3c(C)[n+]([O-])c4ccccc4[n+]3[O-])=NN2)cc(OC)c1OC (stereo unspecified) | 91.8
CCN(Cc1ccccc1)c1ccc(SC#N)cc1 | 75.3

This collection of values is drawn from PubChem BioAssay (NCI).
